System: Plasmodium falciparum, strain NF54, erythrocytic stages
testDetails: microbe, parasite or virus in culture
testConditions: NF54, read-out: P. falc. IC50
experimentalEndpoint: pIC50
Field pIC50 (float): negative decimal logarithm of the concentration in molar.

Some compounds with recorded pIC50:
CC1=C(Cc2ccc(C(F)(F)F)cc2F)C(=O)c2ccccc2C1=O    7.96
O=C1C=C(Cc2ccc(F)cc2C(F)(F)F)C(=O)c2ccccc21    5.64
O=C1C=C(Cc2ccccc2)C(=O)c2ccccc21    5.56
CC1=C(Cc2ccc(F)cc2C(F)(F)F)C(=O)c2ccccc2C1=O    7.70
O=C1C=C(Cc2ccc(Cl)nc2)C(=O)c2ccccc21    5.70

Input line: Request - read-out pIC50 | tested on Plasmodium falciparum, strain NF54, erythrocytic stages | compound `CC1=C(Cc2cc(C(F)(F)F)ccc2F)C(=O)c2ccccc2C1=O`
Output line: 8.22

Input line: Request - read-out pIC50 | tested on Plasmodium falciparum, strain NF54, erythrocytic stages | compound `O=C1C(Cc2ccccc2)=C(C(F)(F)F)C(=O)c2ccccc21`
Output line: 5.42

Input line: Request - read-out pIC50 | tested on Plasmodium falciparum, strain NF54, erythrocytic stages | compound `CC1=C(Cc2cc(F)c(F)cc2F)C(=O)c2ccccc2C1=O`
Output line: 7.36
